# experimental details: COV-362 Cancer Cell Toxicity qHTS against the NCATS CANVASS Library (AID 1347352)
# cond: COV-362 viability, CellTiter-Glo luminescence, 72 h; series mostly up to 38.3 µM
Results filed as inconclusive are left out. Calls of active or inactive are those of the source. Calls come from the whole dose curve; as a rule, active = well fitted cell-killing curve with a large enough effect; inconclusive = small, poorly fitted or top-dose-only effect; inactive = flat fitted curve, though single readings scatter.
Would you mind answering with one of these outcomes? active, inactive

Use these answered entries as a reference point.
{"compound": "C[C@]12CC[C@]3(C1)[C@H](CC2=O)CC(OC(=O)c1ccccc1)[C@H]1[C@@](CO)(C(=O)O)CCC[C@@]13C (some centres not stated)", "class assignment": "inactive"}
{"compound": "CC(C)=CCC[C@@H](C)[C@@H]1CC[C@@]2(C)C[C@H]3C(C)=CC(=O)[C@@H]3/C(C=O)=C\\C[C@H]12", "class assignment": "active"}
{"compound": "O=C(O)CC1OCc2c(O)cccc21 (configuration not stated)", "class assignment": "inactive"}

What did this assay record as the result for "COc1cc(O)c2c3c(c(O)cc(C)c13)C(=O)OC2" ?
inactive

What did this assay record as the result for "C[C@@H]1C[C@H]2C[C@]3(CCCCN3C)[C@@H]3C[C@H]2[C@H](C1)N(C)C3" ?
inactive

What did this assay record as the result for O=C1CC(c2cc(O)cc(O)c2)Oc2cc(O)ccc21 (configuration not stated) ?
inactive
